Give CC50 at 24 h for every item shown.
- assay-protocol: Cytotoxicity against Vero E6 cells, CCK-8 assay (preventive model)
- experimental-setup: African green monkey

## Input Recorded CC50 at 24 h for `O=c1c(O)c(-c2cc(O)c(O)c(O)c2)oc2cc(O)cc(O)c12` , please?
## Output > 100 µM

## Input Also `CCC(CC)COC(=O)[C@H](C)N[P@](=O)(OC[C@H]1O[C@@](C#N)(c2ccc3c(N)ncnn23)[C@H](O)[C@@H]1O)Oc1ccccc1` ?
## Output > 100 µM

## Input Also O=C1c2c(O)cc(O)cc2O[C@H](c2cc(O)c(O)c(O)c2)[C@H]1O [Compound 1, Dihydromyricetin] ?
## Output > 100 µM

====

- assay-protocol: in vitro
- experimental-setup: African green monkey
measurement-type: CC50

## Input Recorded CC50 for `COC(=O)CCCCCOc1cc(O)c2c(=O)c(O)c(-c3cc(O)c(O)c(O)c3)oc2c1` , please?
## Output > 100 µM

## Input Also `COC(=O)COc1cc(O)c2c(=O)c(O)c(-c3cc(O)c(O)c(O)c3)oc2c1` ?
## Output > 100 µM
